# TARGET OR SYSTEM: DLAR D2 (membrane-distal PTP domain of DLAR) (Drosophila melanogaster)
# METHOD DESCRIPTION: SPR; Biacore-2000; DLAR PTP domains immobilised on CM5 chips by amine coupling; peptides as analyte at 50-700 µM; 25°C; 10 mM HEPES pH 8.0, 150 mM NaCl, 10 mM DTT, 3 mM EDTA; 5 µL/min; two independent sites fit for the double domain constructs, single-site fit for DLAR D1 and DLAR D2
Square brackets hold non-standard residues; d marks the D form. Ends that are not written are not given here. pY = N[C@@H](Cc1ccc(OP(=O)(O)O)cc1)C(=O)O
PROPERTY: Kd (µM)
Value expressed in µM; do not type the unit.

Q) Consider the binder TAEPD[pY]GALYE [Cuticle Peptide TAEPD(pY)GALYE] . State its measured Kd.
A) 104
